test system: Escherichia coli LA290 R56; experiment: MIC, serial dilution on nutrient agar; format: cell-based; conditions: LA290R56, 18 h, read-out: Minimum Inhibitory Concentrations
Overview of reported MIC across a group of molecules:
Express the result in µg/mL but write the number alone.

Observe how each entry below is paired with its result.
molecule	MIC [µg/mL]
NCC(O)C(=O)N[C@H]1[C@@H](O[C@H]2[C@H](O)[C@@H](O[C@H]3O[C@H](CO)[C@@H](O)[C@H](N)[C@H]3O)[C@H](NC(=O)C(O)CN)C[C@@H]2N)O[C@H](CN)[C@@H](O)[C@@H]1O (mixture of isomers)	6.25
NC[C@@H]1CC[C@@H](N)[C@@H](O[C@H]2[C@H](O)[C@@H](O[C@H]3O[C@H](CO)[C@@H](O)[C@H](N)[C@H]3O)[C@H](N)C[C@@H]2N)O1 [DKB, 3',4'-dideoxykanamycin B, reference compound]	12.5
NCC[C@H](O)C(=O)N[C@H]1[C@@H](O[C@H]2[C@H](O)[C@@H](O[C@H]3O[C@H](CO)[C@@H](O)[C@H](N)[C@H]3O)[C@H](NC(=O)[C@@H](O)CCN)C[C@@H]2N)O[C@H](CN)[C@@H](O)[C@@H]1O	1.56
NCC[C@H](O)C(=O)N[C@@H]1CC[C@@H](CN)O[C@@H]1O[C@H]1[C@H](O)[C@@H](O[C@H]2O[C@H](CO)[C@@H](O)[C@H](N)[C@H]2O)[C@H](NC(=O)[C@@H](O)CCN)C[C@@H]1N	0.78

Query: Tell me reported MIC for NCC(O)C(=O)N[C@@H]1CC[C@@H](CN)O[C@@H]1O[C@H]1[C@H](O)[C@@H](O[C@H]2O[C@H](CO)[C@@H](O)[C@H](N)[C@H]2O)[C@H](NC(=O)C(O)CN)C[C@@H]1N (mixture of isomers) , tested with Escherichia coli LA290 R56.
Result: 6.25

Query: Form: Entry = `NC[C@H]1O[C@H](O[C@H]2[C@H](O)[C@@H](O[C@H]3O[C@H](CO)[C@@H](O)[C@H](N)[C@H]3O)[C@H](N)C[C@@H]2N)[C@H](N)[C@@H](O)[C@@H]1O` | System = Escherichia coli LA290 R56 | MIC = ____
Result: 3.13

---

Here's a batch of compounds along with measured MIC for Shigella sonnei JS 11746.
Output spec: scalar in µg/mL, unitless text.

compound	MIC [µg/mL]
NC[C@@H]1CC[C@@H](N)[C@@H](O[C@H]2[C@H](O)[C@@H](O[C@H]3O[C@H](CO)[C@@H](O)[C@H](N)[C@H]3O)[C@H](N)C[C@@H]2N)O1 [DKB, 3',4'-dideoxykanamycin B, reference compound]	0.78

Query: Fill in the blank: the reported MIC of `NCC[C@H](O)C(=O)N[C@@H]1CC[C@@H](CN)O[C@@H]1O[C@H]1[C@H](O)[C@@H](O[C@H]2O[C@H](CO)[C@@H](O)[C@H](N)[C@H]2O)[C@H](NC(=O)[C@@H](O)CCN)C[C@@H]1N` is ____.
Result: 6.25

Query: Given the entry `NC[C@H]1O[C@H](O[C@H]2[C@H](O)[C@@H](O[C@H]3O[C@H](CO)[C@@H](O)[C@H](N)[C@H]3O)[C@H](N)C[C@@H]2N)[C@H](N)[C@@H](O)[C@@H]1O` , report its measured MIC.
Result: 1.56

Query: If you can, please state the reported MIC value of `NCC[C@H](O)C(=O)N[C@H]1[C@@H](O[C@H]2[C@H](O)[C@@H](O[C@H]3O[C@H](CO)[C@@H](O)[C@H](N)[C@H]3O)[C@H](NC(=O)[C@@H](O)CCN)C[C@@H]2N)O[C@H](CN)[C@@H](O)[C@@H]1O` .
Result: 6.25

---

Each entry below carries its reported MIC.
system: Pseudomonas aeruginosa No.12; assay: MIC, serial dilution on nutrient agar; type: cell-based; settings: Pseudomonas aeruginosa No.12; nutrient agar, 37°C, 18 hours; read-out: Minimum Inhibitory Concentrations
Use µg/mL as the unit, but write only the number.

The following compounds have reported results that may help.
compound	quantitative_readout
NC[C@@H]1CC[C@@H](N)[C@@H](O[C@H]2[C@H](O)[C@@H](O[C@H]3O[C@H](CO)[C@@H](O)[C@H](N)[C@H]3O)[C@H](N)C[C@@H]2N)O1 [DKB, 3',4'-dideoxykanamycin B, reference compound]	0.78
NCC[C@H](O)C(=O)N[C@H]1[C@@H](O[C@H]2[C@H](O)[C@@H](O[C@H]3O[C@H](CO)[C@@H](O)[C@H](N)[C@H]3O)[C@H](NC(=O)[C@@H](O)CCN)C[C@@H]2N)O[C@H](CN)[C@@H](O)[C@@H]1O [1,2'-AHB-KMB]	25
NCC(O)C(=O)N[C@H]1[C@@H](O[C@H]2[C@H](O)[C@@H](O[C@H]3O[C@H](CO)[C@@H](O)[C@H](N)[C@H]3O)[C@H](NC(=O)C(O)CN)C[C@@H]2N)O[C@H](CN)[C@@H](O)[C@@H]1O (mixture of isomers) [1,2'-IS-KMB, 1,2'-di-N-DL-isoseryl-kanamycin B]	25

Query: // returns reported MIC for input NCC(O)C(=O)N[C@@H]1CC[C@@H](CN)O[C@@H]1O[C@H]1[C@H](O)[C@@H](O[C@H]2O[C@H](CO)[C@@H](O)[C@H](N)[C@H]2O)[C@H](NC(=O)C(O)CN)C[C@@H]1N (mixture of isomers) [1,2'-IS-DKB]
Result: 25

---

tested on: Staphylococcus aureus FDA 209P; experiment: MIC, serial dilution on nutrient agar; type: cell-based; details: FDA209P; Staphylococcus aureus FDA 209P; nutrient agar, 37°C, 18 hours; read-out: Minimum Inhibitory Concentrations
measurement_label: MIC (µg/mL)
Give the quantity in µg/mL, number only.

molecule	measurement_label	unit_tag	quantitative_readout
NCC[C@H](O)C(=O)N[C@@H]1CC[C@@H](CN)O[C@@H]1O[C@H]1[C@H](O)[C@@H](O[C@H]2O[C@H](CO)[C@@H](O)[C@H](N)[C@H]2O)[C@H](NC(=O)[C@@H](O)CCN)C[C@@H]1N	MIC	µg/mL	0.78
NCC(O)C(=O)N[C@H]1[C@@H](O[C@H]2[C@H](O)[C@@H](O[C@H]3O[C@H](CO)[C@@H](O)[C@H](N)[C@H]3O)[C@H](NC(=O)C(O)CN)C[C@@H]2N)O[C@H](CN)[C@@H](O)[C@@H]1O (mixture of isomers)	MIC	µg/mL	3.13

Switching to the query record.
Query: What value of MIC has been reported for the following molecule? NCC(O)C(=O)N[C@@H]1CC[C@@H](CN)O[C@@H]1O[C@H]1[C@H](O)[C@@H](O[C@H]2O[C@H](CO)[C@@H](O)[C@H](N)[C@H]2O)[C@H](NC(=O)C(O)CN)C[C@@H]1N (mixture of isomers)
Result: 1.56

---

Measured MIC on Shigella dysenteriae JS 11910 follows.
Use µg/mL as the unit, but write only the number.

compound	measurement_target	MIC (µg/mL)
NCC[C@H](O)C(=O)N[C@H]1[C@@H](O[C@H]2[C@H](O)[C@@H](O[C@H]3O[C@H](CO)[C@@H](O)[C@H](N)[C@H]3O)[C@H](NC(=O)[C@@H](O)CCN)C[C@@H]2N)O[C@H](CN)[C@@H](O)[C@@H]1O [1,2'-AHB-KMB]	Shigella dysenteriae JS 11910	12.5
NC[C@@H]1CC[C@@H](N)[C@@H](O[C@H]2[C@H](O)[C@@H](O[C@H]3O[C@H](CO)[C@@H](O)[C@H](N)[C@H]3O)[C@H](N)C[C@@H]2N)O1 [DKB, 3',4'-dideoxykanamycin B, reference compound]	Shigella dysenteriae JS 11910	1.56

Query: // fetch Shigella dysenteriae JS 11910 MIC for NCC[C@H](O)C(=O)N[C@@H]1CC[C@@H](CN)O[C@@H]1O[C@H]1[C@H](O)[C@@H](O[C@H]2O[C@H](CO)[C@@H](O)[C@H](N)[C@H]2O)[C@H](NC(=O)[C@@H](O)CCN)C[C@@H]1N [1,2'-AHB-DKB]
Result: 6.25

Query: For the record NC[C@H]1O[C@H](O[C@H]2[C@H](O)[C@@H](O[C@H]3O[C@H](CO)[C@@H](O)[C@H](N)[C@H]3O)[C@H](N)C[C@@H]2N)[C@H](N)[C@@H](O)[C@@H]1O [KMB, kanamycin B] , what value of MIC is listed for Shigella dysenteriae JS 11910?
Result: 3.13
